Source of measurements: patent US10517889B2

- System: human SMAD7 mRNA
- Test name: Dose-dependent inhibition of human SMAD7 mRNA expression in Hep3B cells (Example 3, Study 1 and 2)
- Type: cell-based
- Test settings: 2220 nM, electroporation, approximately 16 hours, Study 2
Strand notation (5' to 3'): a small letter for the sugar, then the base; units joined by * are phosphorothioate-linked, units joined directly phosphodiester-linked; [ ] holds rarer units or linkages, { } end groups; capitals alone tell only the bases. k = constrained ethyl (cEt); [5mC] = 5-methylcytosine; d = 2'-deoxy (DNA)
Rule: % inhibition of SMAD7 mRNA expression under 40% gives 0.0, otherwise 1.0.

1) 798733 (antisense k[5mC]*kG*k[5mC]*dG*dG*d[5mC]*dT*dG*dG*d[5mC]*dG*dG*dG*kT*kG*kG) [compound 798733]	1.0
2) 799751 (antisense kG*kA*kG*d[5mC]*dT*dA*dA*dT*dG*dA*d[5mC]*dA*d[5mC]*kT*kG*kG) [compound 799751]	0.0
3) 830044 (k[5mC]*kG*kA*dT*dT*dG*dG*d[5mC]*dA*dG*dG*dT*dT*kA*kA*kT; antisense) [compound 830044]	1.0
4) 772858 (kA*kG*kT*dG*dT*dT*d[5mC]*dA*dA*d[5mC]*dA*dA*dT*kG*k[5mC]*kT; antisense) [compound 772858]	0.0
5) 800048 (antisense kT*kG*kG*dA*dA*dA*dG*dG*dA*dA*dG*dA*d[5mC]*kT*k[5mC]*kG) [compound 800048]	0.0

----------
- Test system: human peripheral blood mononuclear cells (PBMCs)
- Test name: Human PBMC activation assay, cytokine levels (IL-10, IL-6, MCP-1, TNF-α) in supernatant after 24 hours (Example 9)
- Test settings: human PBMC supernatant after 24 hours; 0.064 μM oligonucleotide
Outcome label depends on Levels of IL-10 relative to 2 pg/mL: at/above gives t, below gives f.

1) 829994 (GGAGGCAGGGCCGCGA; 3-10-3 cEt gapmer, further chemistry not given here) [compound 829994]	f
2) 830121 (AGAATCAAGCCCTGGC; 3-10-3 cEt gapmer, further chemistry not given here) [compound 830121]	f
3) 830037 (antisense CTATTGGCTGATCTGG; 3-10-3 cEt gapmer, further chemistry not given here) [compound 830037]	t
4) 790615 (CCAATGAGAATGCTTC; 3-10-3 cEt gapmer, further chemistry not given here) [compound 790615]	f
5) 830025 (antisense TTTGTAAATCGAAAGC; 3-10-3 cEt gapmer, further chemistry not given here) [compound 830025]	f
6) 736697 (antisense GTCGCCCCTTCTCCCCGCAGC; chemistry not fully specified) [compound 736697]	t

----------
- Tested on: human SMAD7 mRNA
- Test name: Antisense inhibition of human SMAD7 mRNA expression in Hep3B cells by 3-10-3 cEt gapmers, 10,000 nM, electroporation (Example 2)
- Format: cell-based
- Test settings: Hep3B cells, electroporation with 10,000 nM antisense oligonucleotide, approximately 24 hours, SMAD7 mRNA by RT-PCR (RTS5062), relative to untreated control cells
Strand notation (5' to 3'): a small letter for the sugar, then the base; units joined by * are phosphorothioate-linked, units joined directly phosphodiester-linked; [ ] holds rarer units or linkages, { } end groups; capitals alone tell only the bases. k = constrained ethyl (cEt); [5mC] = 5-methylcytosine; d = 2'-deoxy (DNA)
Recorded measurements of % Inhibition, one per entry
Property: % Inhibition (%)

1. 830116 (k[5mC]*kA*k[5mC]*d[5mC]*d[5mC]*dT*dA*dA*dA*d[5mC]*dT*dG*dA*kG*k[5mC]*k[5mC]; antisense) [compound 830116]	11
2. 799864 (k[5mC]*kT*k[5mC]*dA*dA*dG*d[5mC]*d[5mC]*d[5mC]*dA*d[5mC]*d[5mC]*d[5mC]*k[5mC]*kG*kG; antisense) [compound 799864]	42
3. 798679 (antisense k[5mC]*kT*k[5mC]*d[5mC]*dG*d[5mC]*dA*d[5mC]*dA*d[5mC]*d[5mC]*dA*dT*kG*kA*kA) [compound 798679]	32

----------
- System: human SMAD7 mRNA
- Test name: Antisense inhibition of human SMAD7 mRNA expression in Hep3B cells by 3-10-3 cEt gapmers, 10,000 nM, electroporation (Example 2)
- Type: cell-based
- Test settings: Hep3B cells, electroporation with 10,000 nM antisense oligonucleotide, approximately 24 hours, SMAD7 mRNA by RT-PCR (RTS5062), relative to untreated control cells
Strand notation (5' to 3'): a small letter for the sugar, then the base; units joined by * are phosphorothioate-linked, units joined directly phosphodiester-linked; [ ] holds rarer units or linkages, { } end groups; capitals alone tell only the bases. k = constrained ethyl (cEt); [5mC] = 5-methylcytosine; d = 2'-deoxy (DNA)
Entries annotated with measured % Inhibition
Property: % Inhibition

1. 830164 (antisense kG*k[5mC]*kT*dG*d[5mC]*dT*dT*dG*dG*d[5mC]*d[5mC]*dT*dT*kA*k[5mC]*k[5mC]) [compound 830164]	38%
2. 799946 (antisense kT*k[5mC]*kA*dG*dA*dA*d[5mC]*dA*d[5mC]*dA*d[5mC]*dT*dT*kT*kG*kG) [compound 799946]	2%
3. 830092 (kA*kT*kT*dA*dG*dT*d[5mC]*d[5mC]*d[5mC]*dA*dT*dG*dA*kA*kA*k[5mC]; antisense) [compound 830092]	43%

----------
- Test system: human SMAD7 mRNA
- Test name: Antisense inhibition of human SMAD7 mRNA expression in Hep3B cells by 3-10-3 cEt gapmers, 10,000 nM, electroporation (Example 2)
- Format: cell-based
- Test settings: Hep3B cells, electroporation with 10,000 nM antisense oligonucleotide, approximately 24 hours, SMAD7 mRNA by RT-PCR (RTS5062), relative to untreated control cells
Strand notation (5' to 3'): a small letter for the sugar, then the base; units joined by * are phosphorothioate-linked, units joined directly phosphodiester-linked; [ ] holds rarer units or linkages, { } end groups; capitals alone tell only the bases. k = constrained ethyl (cEt); [5mC] = 5-methylcytosine; d = 2'-deoxy (DNA)
Reported % Inhibition values follow for various substances
Property: % Inhibition (%)

1) 830177 (antisense k[5mC]*kA*kG*d[5mC]*d[5mC]*d[5mC]*dT*dT*dT*d[5mC]*dA*d[5mC]*d[5mC]*k[5mC]*k[5mC]*kT) [compound 830177]	40
2) 799901 (antisense kA*kG*kT*d[5mC]*dA*dA*dG*dT*d[5mC]*dT*d[5mC]*dT*dT*kA*k[5mC]*k[5mC]) [compound 799901]	31
3) 830051 (kT*kA*kG*dT*dT*dT*d[5mC]*d[5mC]*dG*dA*dT*dT*dG*kG*k[5mC]*kA; antisense) [compound 830051]	84
4) 798740 (antisense kT*kT*kG*dA*dG*d[5mC]*dA*d[5mC]*d[5mC]*dG*dA*dG*dT*kG*k[5mC]*kG) [compound 798740]	56
5) 799960 (antisense kA*kA*kA*d[5mC]*dA*dG*dG*dG*dT*dT*d[5mC]*d[5mC]*d[5mC]*k[5mC]*k[5mC]*kA) [compound 799960]	8
6) 799963 (antisense kA*kG*k[5mC]*d[5mC]*dA*dT*dG*dG*d[5mC]*dA*dG*dA*dA*k[5mC]*k[5mC]*k[5mC]) [compound 799963]	6
7) 799865 (kG*kG*kG*dA*d[5mC]*dA*dG*dA*d[5mC]*dT*dG*dT*d[5mC]*k[5mC]*k[5mC]*k[5mC]; antisense) [compound 799865]	0
8) 799850 (kG*k[5mC]*kA*dA*dT*dA*dA*dA*dT*d[5mC]*dA*dA*d[5mC]*k[5mC]*kA*kG; antisense) [compound 799850]	49
9) 798921 (kG*kG*k[5mC]*d[5mC]*dT*dG*d[5mC]*dT*d[5mC]*dA*dG*d[5mC]*dT*k[5mC]*kA*k[5mC]; antisense) [compound 798921]	42
10) 830130 (antisense k[5mC]*k[5mC]*kA*d[5mC]*d[5mC]*dT*d[5mC]*d[5mC]*dG*dA*dG*dG*d[5mC]*kA*k[5mC]*k[5mC]) [compound 830130]	32
11) 798696 (antisense kT*k[5mC]*k[5mC]*d[5mC]*d[5mC]*d[5mC]*dT*dG*d[5mC]*dG*d[5mC]*d[5mC]*d[5mC]*kT*k[5mC]*k[5mC]) [compound 798696]	82
12) 799492 (antisense kA*kA*kA*d[5mC]*dA*dA*dT*dA*dG*dA*dG*dG*d[5mC]*kA*kG*kG) [compound 799492]	58

----------
- Tested on: human SMAD7 mRNA
- Test name: Dose-dependent inhibition of human SMAD7 mRNA expression in A431 cells, oligonucleotide added without transfection (Example 5, Study 1)
- Assay type: cell-based
- Test settings: 0.25 μM, approximately 48 hours
Property: % inhibition of SMAD7 mRNA expression (%)

1. 830025 (antisense TTTGTAAATCGAAAGC; 3-10-3 cEt gapmer, further chemistry not given here) [compound 830025]	30
2. 736697 (antisense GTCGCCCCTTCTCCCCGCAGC; chemistry not fully specified) [compound 736697]	20
3. 790615 (CCAATGAGAATGCTTC; 3-10-3 cEt gapmer, further chemistry not given here) [compound 790615]	43
4. 830121 (AGAATCAAGCCCTGGC; 3-10-3 cEt gapmer, further chemistry not given here) [compound 830121]	18
5. 798781 (CGTAAGATTCACAGCA; 3-10-3 cEt gapmer, further chemistry not given here) [compound 798781]	34
6. 830037 (antisense CTATTGGCTGATCTGG; 3-10-3 cEt gapmer, further chemistry not given here) [compound 830037]	31
